target: HLA-B*4403 (Homo sapiens, UniProt P01889, A223V/A65T/A93T/A95T/D201E/D98Y/E176V/E187L/E204Q/E69K/G107R/H137Y/K202T/L105A/L119I/N104T/N87E/Q56L/Q94N/R106L/R155S/R180L/S101N/S121R/S35A/S48T/T118I/V36M/W191S/Y140D/Y91S); test: biochemical; assay type: binding
pIC50: −log10 of the molar value. No end group written: not given here.
Label T when pIC50 is at or above 7; otherwise label F.

SEQ STRING	CATEGORY
AENLWVTVM	T

Q. Quick check: does LDPYARVAI have pIC50 greater than or equal to 7?
A. F

Q. What about this sequence? AENKWVTVY
A. F

Q. What about this sequence? GEISPYPSL
A. F
